Taken from paper PMC2741464.

target: Ku70/Ku80 heterodimer, wild type (human, UniProt P12956;P13010 1-609;1-732); experiment: fluorescence polarization; re-reduced: 2 mM diamide then 5 mM DTT, probably nM; 50 mM Tris-HCl pH 7.8, 10 mM MgCl2, 50 mM NaCl (FP: plus 1 mM DTT, 0.5 ml; EMSA: 20 μl, 500 fmol DNA); oxidation 2 mM diamide 15 min on ice, re-reduction 5 mM DTT 15 min on ice; binding temperature not stated; conditions: protein: recombinant; tags: His6 on Ku70; copies: 1;1; blunt
Sequence (P12956 whole entry, chain 1 of 2): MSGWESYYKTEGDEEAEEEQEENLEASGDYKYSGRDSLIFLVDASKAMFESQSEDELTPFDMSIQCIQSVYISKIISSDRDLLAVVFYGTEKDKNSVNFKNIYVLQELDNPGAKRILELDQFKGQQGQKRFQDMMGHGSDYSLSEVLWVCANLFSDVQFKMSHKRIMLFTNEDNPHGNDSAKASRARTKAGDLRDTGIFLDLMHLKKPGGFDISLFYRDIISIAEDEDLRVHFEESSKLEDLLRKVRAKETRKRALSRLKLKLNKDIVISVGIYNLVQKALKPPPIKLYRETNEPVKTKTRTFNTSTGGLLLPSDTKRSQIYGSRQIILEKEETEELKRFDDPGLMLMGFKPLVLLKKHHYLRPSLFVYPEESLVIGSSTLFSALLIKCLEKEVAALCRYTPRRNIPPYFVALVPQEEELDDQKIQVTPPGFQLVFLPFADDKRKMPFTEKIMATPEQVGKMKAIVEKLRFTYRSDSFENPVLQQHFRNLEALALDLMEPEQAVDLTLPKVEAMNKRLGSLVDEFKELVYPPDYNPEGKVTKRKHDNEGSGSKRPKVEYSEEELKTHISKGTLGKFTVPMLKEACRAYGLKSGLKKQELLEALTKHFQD
Sequence (P13010 whole entry, chain 2 of 2): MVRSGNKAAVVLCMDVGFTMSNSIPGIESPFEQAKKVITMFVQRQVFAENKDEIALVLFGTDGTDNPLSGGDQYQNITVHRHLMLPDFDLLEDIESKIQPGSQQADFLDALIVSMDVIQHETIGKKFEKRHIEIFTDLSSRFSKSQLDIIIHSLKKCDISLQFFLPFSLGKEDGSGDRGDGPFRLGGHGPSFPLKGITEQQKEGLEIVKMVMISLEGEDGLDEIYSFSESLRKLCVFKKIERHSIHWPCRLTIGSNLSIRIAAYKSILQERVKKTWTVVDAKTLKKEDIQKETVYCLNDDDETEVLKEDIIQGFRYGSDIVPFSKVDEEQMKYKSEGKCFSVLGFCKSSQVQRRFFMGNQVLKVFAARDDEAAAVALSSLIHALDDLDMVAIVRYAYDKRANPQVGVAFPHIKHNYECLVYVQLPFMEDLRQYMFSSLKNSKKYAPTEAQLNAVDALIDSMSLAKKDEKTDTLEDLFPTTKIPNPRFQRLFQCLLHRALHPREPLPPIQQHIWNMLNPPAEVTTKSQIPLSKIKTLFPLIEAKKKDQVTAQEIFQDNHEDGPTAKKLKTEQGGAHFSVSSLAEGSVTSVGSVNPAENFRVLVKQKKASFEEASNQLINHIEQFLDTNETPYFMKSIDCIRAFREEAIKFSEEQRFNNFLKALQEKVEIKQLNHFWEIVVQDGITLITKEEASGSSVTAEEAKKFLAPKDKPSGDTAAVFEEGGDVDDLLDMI
measured.property: pKd
Lab note — pKd values are minus log10 of concentrations in M.

So what does the record say about pKd for 30-bp duplex 30A/30C, fluorescein (polarization) (dsDNA) DNA 1: CCCCTATCCTTTCCGCGTCCTTACTTCCCC DNA 2: GGGGAAGTAAGGACGCGGAAAGGATAGGGG ?
7.50
